- system name: Porcine Microsomal Alpha-Glucosidase I (Sus scrofa)
- Construct: Alpha-glucosidase I was isolated from porcine liver microsomes; from tissue; host or cells: porcine liver microsomes
- Sequence (K7N7E7 1-839): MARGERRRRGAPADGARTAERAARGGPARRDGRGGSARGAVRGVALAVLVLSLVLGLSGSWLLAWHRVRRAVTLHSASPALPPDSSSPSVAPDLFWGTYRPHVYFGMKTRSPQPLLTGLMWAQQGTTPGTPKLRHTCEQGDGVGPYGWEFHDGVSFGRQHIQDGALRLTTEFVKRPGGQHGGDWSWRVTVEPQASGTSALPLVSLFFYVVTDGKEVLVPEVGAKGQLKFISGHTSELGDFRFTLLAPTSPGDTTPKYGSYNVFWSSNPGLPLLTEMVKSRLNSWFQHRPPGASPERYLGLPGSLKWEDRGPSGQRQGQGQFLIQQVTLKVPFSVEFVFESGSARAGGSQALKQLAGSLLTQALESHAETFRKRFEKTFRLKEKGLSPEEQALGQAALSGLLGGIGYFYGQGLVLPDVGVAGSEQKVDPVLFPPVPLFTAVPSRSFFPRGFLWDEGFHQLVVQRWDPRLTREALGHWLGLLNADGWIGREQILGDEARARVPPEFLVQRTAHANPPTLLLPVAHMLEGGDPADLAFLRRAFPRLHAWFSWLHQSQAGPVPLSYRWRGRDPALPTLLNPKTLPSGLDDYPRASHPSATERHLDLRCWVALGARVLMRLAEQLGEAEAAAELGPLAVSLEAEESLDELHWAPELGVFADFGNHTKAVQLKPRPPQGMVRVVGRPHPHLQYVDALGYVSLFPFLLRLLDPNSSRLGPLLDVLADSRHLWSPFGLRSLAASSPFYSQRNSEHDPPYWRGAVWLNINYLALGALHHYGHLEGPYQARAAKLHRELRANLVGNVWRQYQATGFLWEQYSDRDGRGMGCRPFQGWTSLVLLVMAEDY
- assay summary: Inhibition constants against porcine microsomal alpha-glucosidase I
- Format: biochemical
- Source text: Porcine Microsomal Alpha-Glucosidase I. Alpha-glucosidase I was isolated from porcine liver microsomes by an affinity chromatographic method similar to that described by Hettkamp et.al., Eur J. Biochem. 142, 85-90 (1981). […]
pKi: −log10 of the molar value.
Below, each of the compounds is paired with its reported pKi value.
experimental endpoint: pKi

> print(dat)
                    structure.smiles.string  assay.value
1  CCCCN1C[C@H](O)[C@@H](O)[C@H](O)[C@H]1CO         6.66
2       OC[C@H]1NC[C@H](O)[C@@H](O)[C@@H]1O         6.08
